- target desc: T1, CRF2R
- T1 sequence (Q13324 whole entry, species assumed, looked up): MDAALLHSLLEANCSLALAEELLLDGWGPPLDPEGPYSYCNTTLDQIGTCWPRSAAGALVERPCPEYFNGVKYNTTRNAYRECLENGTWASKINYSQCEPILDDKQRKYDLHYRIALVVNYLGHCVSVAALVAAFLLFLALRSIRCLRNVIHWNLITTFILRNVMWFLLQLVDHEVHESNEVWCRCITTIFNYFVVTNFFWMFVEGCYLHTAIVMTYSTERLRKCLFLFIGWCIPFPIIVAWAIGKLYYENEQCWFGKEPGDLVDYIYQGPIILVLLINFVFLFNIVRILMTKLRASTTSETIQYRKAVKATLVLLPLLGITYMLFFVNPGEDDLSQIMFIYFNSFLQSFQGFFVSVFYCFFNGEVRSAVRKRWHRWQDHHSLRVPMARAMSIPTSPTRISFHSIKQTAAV
- protocol details: cell-based or functional assay
Ends that are not written are not given here.
Response key: 1.0 means CRF2R Emax >= 90%; 0.0 means CRF2R Emax < 90%.

binder	discrete label
ZGPPISIDLPEYLLRKMIEIEKQEKEKQQAANNRLLLDTI (C-terminal amide) [SEQ ID NO 48]	0.0
IVLSLDVPIGLLQILLEQAKAEAAREQATTNARILARV-NH2 [SEQ ID NO 112]	1.0
IVLSLDVPIGLLQILLEQARQRAAREQATTNARILARV-NH2 [SEQ ID NO 114]	1.0
ZGPPISIDLPTILLRKMIEIEKQEKEKQQAANNRLLLDTI (C-terminal amide) [SEQ ID NO 50]	1.0
ZGPPISIDLPTDLLRKMIEIEKQEKEKQQAANNRLLLDTI (C-terminal amide) [SEQ ID NO 49]	0.0
IVLSLDVPIGLLQILLEQTKANAAREQATTVARILARV-NH2 [SEQ ID NO 116]	0.0
ZGPPISIDLPFILLRKMIEIEKQEKEKQQAANNRLLLDTI (C-terminal amide) [SEQ ID NO 189]	1.0
ZGPPISIDLPWHLLRKMIEIEKQEKEKQQAANNRLLLDTI (C-terminal amide) [SEQ ID NO 209]	1.0
SQEPPISLDLTIHLLREVLEMTKADQLAQQAHSNRKLLDIA-NH2 [SEQ ID NO 87]	0.0
ZGPPISIDLPWFLLRKMIEIEKQEKEKQQAANNRLLLDTI (C-terminal amide) [SEQ ID NO 187]	1.0

Origin of values: patent US20030148956A1
